# TESTED_TARGET: beta-amyloid 1-42 oligomer (20% biotin) (Homo sapiens, UniProt P05067)
# Construct: 12 μg beta-amyloid 1-42 oligomer (20% biotin); purchased Bachem H-5642; host or cells: synthetic peptide
# Sequence (P05067 672-713 limits assumed): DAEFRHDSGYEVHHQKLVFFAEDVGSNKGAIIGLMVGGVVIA
# EXPERIMENTAL_PROTOCOL: SPA competition binding assay against 3H-49b on soluble oligomers
# TEST_SETTINGS: 50 uM unlabeled competitor, 130 nM 3H-49b
Exercise: state measured inhibition at 50 µM for each of the compounds provided.
Answers are plain numbers, in %.

The examples below pair each entry with its known result.
> print(dat)
                                   compound    measured.property  readout.unit  obs.value
1  CC(=O)OCc1c(-c2ccc(CN3CCN(c4ccc(Cl)cc4)CC3)o2)oc2ccccc12  inhibition at 50 µM             %         55
2  CCOC(=O)c1ccc(C(O)c2ccc(-c3oc4ccccc4c3CO)o2)o1 (centres unmarked) [Compound 10c]  inhibition at 50 µM             %         57
3  CC(=O)OCc1c(-c2ccc(CN3CCN(c4ccc(C(F)(F)F)cc4)CC3)o2)oc2ccccc12 [Compound 13c]  inhibition at 50 µM             %         60

# batch size: 5; output inhibition at 50 µM per entry
1. OCc1c(-c2ccc(-c3cncn3CCF)o2)oc2ccccc12 [Compound 11c]
2. CCOC(=O)c1ccc(C(O)c2ccc(-c3oc4ccccc4c3COC(C)=O)o2)o1 (centres unmarked) [Compound 12c]
3. O=Cc1ccc(-c2oc3ccccc3c2CO)o1 [Compound 49b]
4. CC(=O)OCc1c(-c2ccc(CN3CCN(c4ccc(C#N)cc4)CC3)o2)oc2ccccc12
5. COC(=O)[C@H](C(C)C)n1cnc(-c2ccccc2)c1-c1ccc(-c2oc3ccccc3c2CO)o1

### Response
1: 58; 2: 59; 3: 61; 4: 24; 5: 30

# batch size: 2; output inhibition at 50 µM per entry
1. CC(=O)OCc1c(-c2ccc(C(O)c3ccc(F)c(Cl)c3)o2)oc2ccccc12 (centres unmarked)
2. COc1ccc(N2CCN(Cc3ccc(-c4oc5ccccc5c4COC(C)=O)o3)CC2)cc1

### Response
1: 51; 2: 38

### Prompt Identify inhibition at 50 µM associated with the compound `CC(=O)OCc1c(-c2ccc(C=O)o2)oc2ccccc12`
### Response 51
